B1: EDARADD (parent)
chain: VEKVLRRWVDEEWPKRERGDPSRH

- Variants of: B1
- Test Protocol: protein stability index of a GFP-peptide fusion (GPS, HEK-293T) (PSI 1-6); higher = more stable;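 note: lentivirally expressed fusions sorted by FACS into six bins by GFP to DsRed ratio, PSI derived from sequencing read proportions per bin multiplied by bin number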
- Run Conditions: c terminus: a fixed tail appended
Label class 1 when protein stability index is at or above 3; otherwise label class 0.

Reported protein stability index reaches at least 3 for R18D ? class 1

Reported protein stability index reaches at least 3 for V1G ? class 1

Reported protein stability index reaches at least 3 for E2L ? class 0

Reported protein stability index reaches at least 3 for V4W ? class 1
